# MEASURED_TARGET: Mitogen-activated protein kinase 8 (Homo sapiens, UniProt P45983)
# Sequence (P45983 whole entry): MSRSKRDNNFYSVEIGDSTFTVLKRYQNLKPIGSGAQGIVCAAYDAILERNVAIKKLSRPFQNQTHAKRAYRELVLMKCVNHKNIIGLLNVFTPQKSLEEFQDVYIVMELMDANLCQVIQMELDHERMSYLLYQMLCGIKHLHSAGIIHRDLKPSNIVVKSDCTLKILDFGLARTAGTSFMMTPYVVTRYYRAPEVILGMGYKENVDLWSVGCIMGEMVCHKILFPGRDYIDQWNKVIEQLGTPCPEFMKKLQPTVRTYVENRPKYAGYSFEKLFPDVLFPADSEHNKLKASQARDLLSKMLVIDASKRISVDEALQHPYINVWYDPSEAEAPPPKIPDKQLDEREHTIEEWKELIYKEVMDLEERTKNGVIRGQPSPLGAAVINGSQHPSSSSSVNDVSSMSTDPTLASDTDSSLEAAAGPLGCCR
MEASUREMENT_TYPE: IC50 (µM)
Answers are plain numbers, in µM.

Given "CN1CCN(Cc2ccc(-c3cnc4[nH]cc(-c5ccc6[nH]ccc6c5)c4c3)cc2)CC1" , respond with its IC50.
3.2

====

Target protein (sequence): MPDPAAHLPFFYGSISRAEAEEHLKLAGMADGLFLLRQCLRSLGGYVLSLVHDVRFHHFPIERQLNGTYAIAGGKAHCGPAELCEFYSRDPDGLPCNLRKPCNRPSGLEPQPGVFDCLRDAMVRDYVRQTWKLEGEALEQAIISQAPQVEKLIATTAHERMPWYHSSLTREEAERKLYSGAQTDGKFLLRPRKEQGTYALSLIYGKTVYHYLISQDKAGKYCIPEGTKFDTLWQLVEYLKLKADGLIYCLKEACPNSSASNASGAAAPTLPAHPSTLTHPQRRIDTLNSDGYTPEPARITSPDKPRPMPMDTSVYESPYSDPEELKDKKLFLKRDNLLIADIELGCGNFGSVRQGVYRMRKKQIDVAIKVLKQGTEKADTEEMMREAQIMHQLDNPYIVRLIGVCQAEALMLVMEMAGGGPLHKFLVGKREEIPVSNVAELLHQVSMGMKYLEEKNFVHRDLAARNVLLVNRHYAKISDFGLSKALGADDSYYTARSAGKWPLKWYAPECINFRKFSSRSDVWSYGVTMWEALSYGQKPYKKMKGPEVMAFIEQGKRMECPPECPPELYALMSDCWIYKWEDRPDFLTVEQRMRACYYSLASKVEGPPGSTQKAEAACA
MEASUREMENT_TYPE: pIC50
Numbers only, as −log10 of the molar value.

Please list pIC50 recorded for the compound "CN1CCN(Cc2ccc(-c3cnc4[nH]cc(-c5ccc6[nH]ccc6c5)c4c3)cc2)CC1"
5.30

====

# MEASURED_TARGET: Tyrosine-protein kinase Lck (Homo sapiens, UniProt P06239)
# Sequence (P06239 whole entry): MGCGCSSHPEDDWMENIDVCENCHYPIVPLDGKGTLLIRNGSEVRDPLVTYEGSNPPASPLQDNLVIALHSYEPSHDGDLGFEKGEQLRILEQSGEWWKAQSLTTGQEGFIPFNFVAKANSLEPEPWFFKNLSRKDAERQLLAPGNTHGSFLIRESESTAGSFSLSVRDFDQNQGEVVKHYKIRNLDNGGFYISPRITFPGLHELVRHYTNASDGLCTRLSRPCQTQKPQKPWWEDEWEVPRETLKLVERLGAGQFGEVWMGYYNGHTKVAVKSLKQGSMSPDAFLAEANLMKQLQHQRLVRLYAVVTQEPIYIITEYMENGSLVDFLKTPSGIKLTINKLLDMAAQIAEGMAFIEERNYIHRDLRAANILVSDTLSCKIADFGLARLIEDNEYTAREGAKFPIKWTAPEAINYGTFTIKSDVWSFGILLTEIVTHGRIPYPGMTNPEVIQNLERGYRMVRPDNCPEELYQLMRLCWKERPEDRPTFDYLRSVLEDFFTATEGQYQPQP
MEASUREMENT_TYPE: IC50 (nM)
One number for each entry, in nM.

Using Tyrosine-protein kinase Lck (Homo sapiens, UniProt P06239) as the test system, report measured IC50 of "CN1CCN(Cc2ccc(-c3cnc4[nH]cc(-c5ccc6[nH]ccc6c5)c4c3)cc2)CC1" .
333

====

# MEASURED_TARGET: High affinity nerve growth factor receptor (Homo sapiens, UniProt P04629)
# Sequence (P04629 whole entry): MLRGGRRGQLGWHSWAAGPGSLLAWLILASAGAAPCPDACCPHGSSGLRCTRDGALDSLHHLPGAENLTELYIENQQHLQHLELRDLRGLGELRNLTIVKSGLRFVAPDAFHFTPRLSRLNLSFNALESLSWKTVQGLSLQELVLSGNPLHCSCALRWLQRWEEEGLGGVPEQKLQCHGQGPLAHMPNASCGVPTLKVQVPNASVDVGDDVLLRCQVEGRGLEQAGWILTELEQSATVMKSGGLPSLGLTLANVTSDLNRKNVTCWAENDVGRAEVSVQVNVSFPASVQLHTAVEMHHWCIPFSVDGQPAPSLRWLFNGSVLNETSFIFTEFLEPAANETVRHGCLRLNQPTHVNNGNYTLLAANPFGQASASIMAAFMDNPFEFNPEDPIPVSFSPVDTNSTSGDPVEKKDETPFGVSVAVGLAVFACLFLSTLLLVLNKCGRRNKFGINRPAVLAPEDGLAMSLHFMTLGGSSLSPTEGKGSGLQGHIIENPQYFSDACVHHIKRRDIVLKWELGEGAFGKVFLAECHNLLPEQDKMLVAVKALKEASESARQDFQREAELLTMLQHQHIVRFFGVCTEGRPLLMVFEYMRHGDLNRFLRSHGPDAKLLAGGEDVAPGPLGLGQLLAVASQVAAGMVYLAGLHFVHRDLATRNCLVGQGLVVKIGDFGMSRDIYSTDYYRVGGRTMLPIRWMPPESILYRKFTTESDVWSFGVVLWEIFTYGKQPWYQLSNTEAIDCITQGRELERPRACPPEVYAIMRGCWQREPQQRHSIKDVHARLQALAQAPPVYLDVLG
MEASUREMENT_TYPE: pIC50
One number for each entry, as −log10 of the molar value.

Assign pIC50 to the following record: "CN1CCN(Cc2ccc(-c3cnc4[nH]cc(-c5ccc6[nH]ccc6c5)c4c3)cc2)CC1"
7.07

====

# MEASURED_TARGET: BDNF/NT-3 growth factors receptor (Homo sapiens, UniProt Q16620)
# Sequence (Q16620 whole entry): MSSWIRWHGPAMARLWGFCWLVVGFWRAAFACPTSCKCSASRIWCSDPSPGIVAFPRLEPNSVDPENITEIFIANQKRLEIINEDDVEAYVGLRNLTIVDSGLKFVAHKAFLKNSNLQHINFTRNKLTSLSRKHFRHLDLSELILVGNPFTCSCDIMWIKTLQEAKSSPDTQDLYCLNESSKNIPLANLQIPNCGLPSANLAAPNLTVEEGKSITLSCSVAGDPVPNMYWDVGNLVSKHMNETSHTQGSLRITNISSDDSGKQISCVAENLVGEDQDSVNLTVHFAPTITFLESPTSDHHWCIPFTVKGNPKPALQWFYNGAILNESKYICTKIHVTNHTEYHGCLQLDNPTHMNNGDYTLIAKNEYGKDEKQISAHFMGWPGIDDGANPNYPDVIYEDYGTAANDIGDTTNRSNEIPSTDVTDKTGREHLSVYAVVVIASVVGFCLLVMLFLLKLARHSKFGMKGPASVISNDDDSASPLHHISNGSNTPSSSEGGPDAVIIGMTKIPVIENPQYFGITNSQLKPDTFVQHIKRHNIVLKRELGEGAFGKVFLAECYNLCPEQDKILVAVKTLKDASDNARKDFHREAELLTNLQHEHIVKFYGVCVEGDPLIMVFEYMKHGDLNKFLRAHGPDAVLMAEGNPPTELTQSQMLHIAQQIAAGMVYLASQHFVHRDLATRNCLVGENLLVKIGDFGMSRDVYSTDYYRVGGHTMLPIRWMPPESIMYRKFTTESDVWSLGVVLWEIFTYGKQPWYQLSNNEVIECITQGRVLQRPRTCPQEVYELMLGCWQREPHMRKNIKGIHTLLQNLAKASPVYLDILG
MEASUREMENT_TYPE: IC50 (µM)
One number for each entry, in µM.

Fill in reported IC50 for this entry: "CN1CCN(Cc2ccc(-c3cnc4[nH]cc(-c5ccc6[nH]ccc6c5)c4c3)cc2)CC1"
0.217

====

# MEASURED_TARGET: Receptor-type tyrosine-protein kinase FLT3 (Homo sapiens)
# ASSAY_METHOD_TEXT: Inhibition of wild type human FLT3 at 1 umol by high throughput ATP-[33P] radiolabeled assay relative to control
MEASUREMENT_TYPE: inhibition (%)
One number for each entry, in %.

COc1cc(-c2cnc3[nH]cc(-c4ccc(N)nc4)c3c2)cc(OC)c1OC | 99

# batch size: 4; output inhibition per entry
1. Nc1ccc(-c2cnc3[nH]cc(-c4ccc5[nH]ccc5c4)c3c2)cn1
2. Nc1ncc(-c2cnc3[nH]cc(-c4ccc5[nH]ccc5c4)c3c2)cn1
3. COc1cc(-c2cnc3[nH]cc(-c4ccc5[nH]ccc5c4)c3c2)cc(OC)c1OC
4. COc1cc(-c2cnc3[nH]c(=O)n(-c4ccc5[nH]ccc5c4)c3n2)cc(OC)c1OC

98
97
98
88
